Value source: PubChem BioAssay (NCI)

- Tested on: HCC-2998 colon
- PROCEDURE TEXT: NCI-60 one-dose screen, 48 h (100 = growth as untreated, 0 = no growth, -100 = all killed)
- CONDITION DESCRIPTION: 10 µM
This is part of a sample that, as a whole, favours compounds with a hit. Of some 83,000 tested, about 20% had one in any assay.

- MOLECULE: "O=C1/C=C/[C@@H](O)[C@@H]2C[C@@H](O)C[C@H]2/C=C/CCC[C@H](CCc2ccc(C(F)(F)F)cc2)O1"
  growth, %: -11.5
- MOLECULE: "CN(C)CCCOc1ccccc1NC1=C(Cl)C(=O)C(Nc2ccccc2OCCCN(C)C)=C(Cl)C1=O"
  growth, %: -87
- MOLECULE: "CCOC(=O)c1cc(C(=O)c2cc(OC)cc(OC)c2)n2nc(C)ccc12"
  growth, %: 54.1
- MOLECULE: "CCC(c1ccc(OC)cc1)C(CC)c1ccc(O)c(CN2CCN(C)CC2)c1 (stereo unspecified)"
  growth, %: -1.52
- MOLECULE: "CC(C)(C)OC(=O)N1CCc2c(sc3ncnc(N/N=C/c4ccccc4Br)c23)C1"
  growth, %: 92.3
- MOLECULE: "O=C1/C=C/[C@@H](O)[C@@H]2C[C@@H](O)C[C@H]2/C=C/CCC[C@H](CCc2ccc(NC(=S)Nc3ccc4c(c3)C(=O)OC43c4ccc(O)cc4Oc4cc(O)ccc43)cc2)O1"
  growth, %: -7.57
- MOLECULE: "O=C(Nc1ccccc1)Nc1ncnc2c1ncn2-c1ccccc1"
  growth, %: 92.6
- MOLECULE: "Cc1ccccc1N1C(=O)c2cc(S(N)(=O)=O)c(Cl)cc2NC1C (stereo unspecified)"
  growth, %: 107
- MOLECULE: "CCCc1cn(CC(=O)Nc2nc3ccccc3s2)nn1"
  growth, %: 116
- MOLECULE: "CCOc1ccccc1/C=N\\N=C\\c1ccccc1O"
  growth, %: 102
- MOLECULE: "CC(=O)Oc1cc(OC(C)=O)c2ccccc2c1OC(C)=O"
  growth, %: 110

----------
- Test system: 786-0 renal
- PROCEDURE TEXT: NCI-60 one-dose screen, 48 h
- CONDITION DESCRIPTION: 10 µM
This is part of a sample that, as a whole, favours compounds with a hit. Of some 83,000 tested, about 20% had one in any assay. The source made the active and inactive calls. How the source made its calls: active means growth percent below 10; inactive means the rest.
Outcome codes: true (1) (active), false (0) (inactive)

- COMPOUND: "CC[C@@H]1NC(=O)[C@H]([C@H](O)[C@H](C)C/C=C/c2ccc(CN3C(=O)CCCC3=O)cc2)N(C)C(=O)[C@H](C(C)C)N(C)C(=O)[C@H](CC(C)C)N(C)C(=O)[C@H](CC(C)C)N(C)C(=O)[C@@H](C)NC(=O)[C@H](C)NC(=O)[C@H](CC(C)C)N(C)C(=O)[C@H](C(C)C)NC(=O)[C@H](CC(C)C)N(C)C(=O)CN(C)C1=O"
  SYSTEM UNDER TEST: "786-0 renal"
  QUALITATIVE LABEL: "false (0)"
- COMPOUND: "O=C(N/N=C/c1ccc(Cl)cc1)c1ccc(Cc2n[nH]c(=O)c3cccnc23)cc1"
  SYSTEM UNDER TEST: "786-0 renal"
  QUALITATIVE LABEL: "false (0)"
- COMPOUND: "CC(C)N(CCOc1ccc(-c2nc3sccn3c2-c2ccnc(S(C)(=O)=O)n2)cc1)C(C)C"
  SYSTEM UNDER TEST: "786-0 renal"
  QUALITATIVE LABEL: "false (0)"
- COMPOUND: "O=C(O)COc1c(Cl)cc([N+](=O)[O-])cc1Cl"
  SYSTEM UNDER TEST: "786-0 renal"
  QUALITATIVE LABEL: "false (0)"
- COMPOUND: "CCOC(=O)c1cc(C(=O)c2cc(OC)cc(OC)c2)n2nc(C)ccc12"
  SYSTEM UNDER TEST: "786-0 renal"
  QUALITATIVE LABEL: "false (0)"
- COMPOUND: "CC(=O)OC1CC2C(C)(C)CCC[C@]2(C)C2=C1C(O)=C(C(C)C)C(=O)C2=O (stereo not given in full)"
  SYSTEM UNDER TEST: "786-0 renal"
  QUALITATIVE LABEL: "true (1)"
- COMPOUND: "CCOC(=O)c1cc(C(=O)c2cc(OC)c(OC)c(OC)c2)n2ncc3ccccc3c12"
  SYSTEM UNDER TEST: "786-0 renal"
  QUALITATIVE LABEL: "false (0)"
- COMPOUND: "C[C@]12CC[C@@H]3c4ccc(O)cc4CC[C@H]3[C@@H]1CC[C@@H]2NS(=O)(=O)c1ccc(C(F)(F)F)cc1"
  SYSTEM UNDER TEST: "786-0 renal"
  QUALITATIVE LABEL: "false (0)"
- COMPOUND: "CCCCCC(=O)O[C@]1(C(C)=O)CCC2C3CCC4=CC(=O)CC[C@]4(C)C3CC[C@@]21C (stereo not given in full)"
  SYSTEM UNDER TEST: "786-0 renal"
  QUALITATIVE LABEL: "false (0)"
- COMPOUND: "COc1ccc2c(c1)C(CC(=O)NN)CCC2 (stereo not given)"
  SYSTEM UNDER TEST: "786-0 renal"
  QUALITATIVE LABEL: "false (0)"
- COMPOUND: "CC1=CC2C(C(O)CC3(C)C2CC(C)C32OCOC23COCO3)C2(C)C/C(=C/O)C(=O)C=C12 (stereo not given)"
  SYSTEM UNDER TEST: "786-0 renal"
  QUALITATIVE LABEL: "false (0)"
- COMPOUND: "O[C@@H]1CO[C@H]2[C@@H]1OC[C@@H]2O"
  SYSTEM UNDER TEST: "786-0 renal"
  QUALITATIVE LABEL: "false (0)"
- COMPOUND: "COc1cc2c(cc1NC(=O)C(Cl)Cl)-c1ccc(NC(=O)C(Cl)Cl)cc1C2"
  SYSTEM UNDER TEST: "786-0 renal"
  QUALITATIVE LABEL: "false (0)"
- COMPOUND: "Oc1ccc(/C=N/N=C2c3ccccc3-c3ccccc32)c(O)c1"
  SYSTEM UNDER TEST: "786-0 renal"
  QUALITATIVE LABEL: "false (0)"
- COMPOUND: "COc1ccc(/C=C/c2nnc(/C=C/c3ccc(OC)c(OC)c3)o2)cc1OC"
  SYSTEM UNDER TEST: "786-0 renal"
  QUALITATIVE LABEL: "false (0)"
- COMPOUND: "CC(C)[N+]1(C)C2CC[C@@H]1CC(OC(=O)C(CO)c1ccccc1)C2 (stereo not given in full)"
  SYSTEM UNDER TEST: "786-0 renal"
  QUALITATIVE LABEL: "false (0)"
- COMPOUND: "CCn1cc(CNc2ccc(C(=O)Nc3ccc4ccccc4c3)cc2)c(C)n1"
  SYSTEM UNDER TEST: "786-0 renal"
  QUALITATIVE LABEL: "false (0)"
- COMPOUND: "O=C(c1ccccc1)N(C(=O)c1ccccc1)N1CCCC1"
  SYSTEM UNDER TEST: "786-0 renal"
  QUALITATIVE LABEL: "false (0)"
- COMPOUND: "COc1ccc2nc3cc(Cl)ccc3c(N)c2c1"
  SYSTEM UNDER TEST: "786-0 renal"
  QUALITATIVE LABEL: "true (1)"
- COMPOUND: "COc1ccc2c(c1)OC(N)=C(C#N)C2c1cc(OC)c(OC)c(OC)c1 (stereo not given)"
  SYSTEM UNDER TEST: "786-0 renal"
  QUALITATIVE LABEL: "false (0)"
- COMPOUND: "CCN1CCN(CCC(=O)Nc2cccc(-n3cc(-c4ccncc4)c(-c4ccc(Cl)c(OC)c4)n3)c2)CC1"
  SYSTEM UNDER TEST: "786-0 renal"
  QUALITATIVE LABEL: "true (1)"
- COMPOUND: "COc1cc2ncnc(NC3CCC(O)CC3)c2cc1OC (stereo not given)"
  SYSTEM UNDER TEST: "786-0 renal"
  QUALITATIVE LABEL: "false (0)"
- COMPOUND: "O=C(Nc1ccc2c(O)cc(S(=O)(=O)O)cc2c1)c1ccc([N+](=O)[O-])cc1"
  SYSTEM UNDER TEST: "786-0 renal"
  QUALITATIVE LABEL: "false (0)"
- COMPOUND: "CCCCCCCCCCCCCCCCCC[n+]1ccc2c(C)c3c(c(C)c2c1)c1cc(O)ccc1n3CC"
  SYSTEM UNDER TEST: "786-0 renal"
  QUALITATIVE LABEL: "true (1)"
- COMPOUND: "O=C1/C=C/[C@@H](O)[C@@H]2C[C@@H](O)C[C@H]2/C=C/CCC[C@H](C(F)(F)F)O1"
  SYSTEM UNDER TEST: "786-0 renal"
  QUALITATIVE LABEL: "true (1)"
